All figures here come from paper PMC4098866.

targetDesc: RPSA-(2–209) (Mus musculus)
protocolText: Fluorimetric titration of RPSA derivative with EGCG
Format: binding, murine
conditionDetails: read-out: KD(EGCG); 25°C, PBS, equilibrium in solution, spectrofluorimetry
endpoint: Kd (nM)
Kindly answer with a numeric value in nM, unit omitted.

If you can, please state the reported Kd value of O=C(O[C@@H]1Cc2c(O)cc(O)cc2O[C@@H]1c1cc(O)c(O)c(O)c1)c1cc(O)c(O)c(O)c1 [EGCG, (−)-epigallocatechin-3-gallate] .
99

====

targetDesc: RPSA-(2–209) W176A (Mus musculus, UniProt P14206, W176A)
protocolText: Fluorimetric titration of mutant RPSA-
conditionDetails: read-out: KD (EGCG); 25°C, W176A mutant of RPSA-(2–209)
endpoint: Kd

If you can, please state the reported Kd value of O=C(O[C@@H]1Cc2c(O)cc(O)cc2O[C@@H]1c1cc(O)c(O)c(O)c1)c1cc(O)c(O)c(O)c1 [EGCG, (−)-epigallocatechin-3-gallate] .
186 nM
